Test: drug combination growth inhibition, ovarian cancer – cell-based, oncology-focused library, rucaparib conditional, profiling panel (AID 1508598)
Conditions: patient-derived ovarian cancer cells, CellTiter-Glo viability, 144 h; at 5 µM; OCI-C5x cells; without rucaparib
Calls of active or inactive are those of the source.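 Rule for the calls: active = normalized viability below 100% at a tested concentration; inactive = the rest.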
Your reply should match one of these outcome classes. active, inactive

Reference set, count: 5
molecule=C=CC(=O)Nc1cc(Nc2nccc(-c3cn(C)c4ccccc34)n2)c(OC)cc1N(C)CCN(C)C group=active
molecule=Cc1cccc(-c2[nH]c(C(C)(C)C)nc2-c2ccc3nccnc3c2)n1 group=inactive
molecule=CC(=O)c1c(C)c2cnc(Nc3ccc(N4CCNCC4)cn3)nc2n(C2CCCC2)c1=O group=inactive
molecule=COc1ccc(-c2ccc3c(N4CCOCC4)nc(N4C[C@@H](C)O[C@@H](C)C4)nc3n2)cc1CO group=inactive
molecule="Cc1nnc(C(C)C)n1C1CC2CCC(C1)N2CC[C@H](NC(=O)C1CCC(F)(F)CC1)c1ccccc1 (stereo not given in full)" group=inactive

[Q] Give the logged outcome of this assay for the following molecule: O=C(Cc1ccc(-c2ccc(OCCN3CCOCC3)cc2)cn1)NCc1ccccc1
[A] active

[Q] Give the logged outcome of this assay for the following molecule: Cc1c(NC(=O)OC[C@@H]2COCCN2)cn2ncnc(Nc3ccc4c(cnn4Cc4cccc(F)c4)c3)c12
[A] inactive

[Q] Give the logged outcome of this assay for the following molecule: O=C(Nc1ccccc1-c1cn2c(CN3CCNCC3)csc2n1)c1cnc2ccccc2n1
[A] active

[Q] Give the logged outcome of this assay for the following molecule: CNC(=O)c1ccc(C)c(-n2c(C)cc(OCc3ccc(F)cc3F)c(Br)c2=O)c1
[A] inactive

[Q] Give the logged outcome of this assay for the following molecule: CN1CCCN(C(=O)c2cccc(-c3ccc(/C=C4/C(=O)Nc5ccc(Cl)cc54)o3)c2)CC1
[A] active
